Hey, just so you know, these numbers are from paper PMC7531004.

Tested on: Streptococcus pyogenes SSI-9
assay comment: Antibacterial activity assay of bead-derived peptides (three concentrations)
Assay type: cell-based
Parameters: key: +++: inhibition by the 640-fold diluted peptide solution; ++: inhibition by the 160-fold diluted solution; +: inhibition by the 40-fold diluted solution; -: no inhibition
condition notes: S. pyogenes, bead-derived peptide solution, three concentrations
Where a SMILES comes first, the peptide text is derived from it. [ ]: non-standard residue; d: D form. The star is where a group is joined. NHCH2CH2OH = OCCN*; For = O=C*
measured metric: antibacterial activity

Guide cases for antibacterial activity, answers given:
compound | system tested | antibacterial activity
CC(C)C[C@@H](NC(=O)[C@H](C)NC(=O)[C@H](NC(=O)[C@H](C)NC(=O)CNC(=O)[C@@H](NC=O)C(C)C)[C@H](C)O)C(=O)N[C@H](C(=O)N[C@H](CC(C)C)C(=O)N[C@@H](Cc1c[nH]c2ccccc12)C(=O)N[C@H](CC(C)C)C(=O)N[C@@H](Cc1c[nH]c2ccccc12)C(=O)N[C@H](CC(C)C)C(=O)N[C@@H](Cc1c[nH]c2ccccc12)C(=O)N[C@H](CC(C)C)C(=O)N[C@@H](Cc1c[nH]c2ccccc12)C(=O)NCCO)C(C)C [compound 10497] (For-VGA[dT]A[dL]V[dL]W[dL]W[dL]W[dL]W-NHCH2CH2OH) | Streptococcus pyogenes SSI-9 | -
CC(C)C[C@@H](NC(=O)[C@H](Cc1c[nH]c2ccccc12)NC(=O)[C@H](NC(=O)[C@H](Cc1c[nH]c2ccccc12)NC(=O)[C@H](NC(=O)[C@H](Cc1c[nH]c2ccccc12)NC(=O)[C@@H](CC(C)C)NC(=O)[C@@H](NC(=O)[C@H](NC(=O)[C@H](C)NC(=O)[C@H](NC(=O)[C@H](C)NC(=O)CNC(=O)[C@@H](NC=O)C(C)C)C(C)C)C(C)C)C(C)C)C(C)C)C(C)C)C(=O)N[C@@H](Cc1c[nH]c2ccccc12)C(=O)NCCO [compound 97] (For-VGA[dV]A[dV]V[dL]W[dV]W[dV]W[dL]W-NHCH2CH2OH) | Streptococcus pyogenes SSI-9 | +
CC(C)C[C@@H](NC(=O)[C@H](C)NC(=O)CNC(=O)[C@@H](NC=O)C(C)C)C(=O)N[C@@H](C)C(=O)N[C@H](CC(C)C)C(=O)N[C@H](C(=O)N[C@@H](C(=O)N[C@@H](Cc1c[nH]c2ccccc12)C(=O)N[C@H](CC(C)C)C(=O)N[C@@H](Cc1c[nH]c2ccccc12)C(=O)N[C@@H](C(=O)N[C@@H](Cc1c[nH]c2ccccc12)C(=O)N[C@@H](C(=O)N[C@@H](Cc1c[nH]c2ccccc12)C(=O)NCCO)C(C)C)C(C)C)C(C)C)C(C)C [compound 2557] (For-VGA[dL]A[dL]V[dV]W[dL]W[dV]W[dV]W-NHCH2CH2OH) | Streptococcus pyogenes SSI-9 | ++
CC(C)C[C@@H](NC(=O)[C@H](C)NC(=O)CNC(=O)[C@@H](NC=O)C(C)C)C(=O)N[C@@H](C)C(=O)N[C@@H](C(=O)N[C@H](C(=O)N[C@@H](C(=O)N[C@@H](Cc1c[nH]c2ccccc12)C(=O)N[C@H](CC(C)C)C(=O)N[C@@H](Cc1c[nH]c2ccccc12)C(=O)N[C@@H](C(=O)N[C@@H](Cc1c[nH]c2ccccc12)C(=O)N[C@@H](C(=O)N[C@@H](Cc1c[nH]c2ccccc12)C(=O)NCCO)C(C)C)C(C)C)C(C)C)C(C)C)[C@H](C)O [compound 6549] (For-VGA[dL]A[dT]V[dV]W[dL]W[dV]W[dV]W-NHCH2CH2OH) | Streptococcus pyogenes SSI-9 | -
CNC(=O)C[C@@H](NC(=O)[C@H](Cc1c[nH]c2ccccc12)NC(=O)[C@H](NC(=O)[C@H](Cc1c[nH]c2ccccc12)NC(=O)[C@H](NC(=O)[C@H](Cc1c[nH]c2ccccc12)NC(=O)[C@@H](CC(C)C)NC(=O)[C@@H](NC(=O)[C@H](NC(=O)[C@H](C)NC(=O)[C@H](NC(=O)[C@H](C)NC(=O)CNC(=O)[C@@H](NC=O)C(C)C)C(C)C)C(C)C)C(C)C)C(C)C)C(C)C)C(=O)N[C@@H](Cc1c[nH]c2ccccc12)C(=O)NCCO [compound 5604] (For-VGA[dV]A[dV]V[dL]W[dV]W[dV]W[dD](NHMe)W-NHCH2CH2OH) | Streptococcus pyogenes SSI-9 | -
CC(C)C[C@@H](NC(=O)[C@@H](NC(=O)[C@H](NC(=O)[C@H](C)NC(=O)[C@H](NC(=O)[C@H](C)NC(=O)CNC(=O)[C@@H](NC=O)C(C)C)[C@H](C)O)C(C)C)C(C)C)C(=O)N[C@@H](Cc1c[nH]c2ccccc12)C(=O)N[C@@H](C(=O)N[C@@H](Cc1c[nH]c2ccccc12)C(=O)N[C@@H](C(=O)N[C@@H](Cc1c[nH]c2ccccc12)C(=O)N[C@@H](C(=O)N[C@@H](Cc1c[nH]c2ccccc12)C(=O)NCCO)C(C)C)C(C)C)C(C)C [compound 3019] (For-VGA[dT]A[dV]V[dL]W[dV]W[dV]W[dV]W-NHCH2CH2OH) | Streptococcus pyogenes SSI-9 | -
CNC(=O)C[C@@H](NC(=O)[C@H](Cc1c[nH]c2ccccc12)NC(=O)[C@@H](CC(C)C)NC(=O)[C@@H](NC(=O)[C@@H](CC(C)C)NC(=O)[C@H](C)NC(=O)[C@H](NC(=O)[C@H](C)NC(=O)CNC(=O)[C@@H](NC=O)C(C)C)[C@H](C)O)C(C)C)C(=O)N[C@@H](Cc1c[nH]c2ccccc12)C(=O)N[C@H](CC(C)C)C(=O)N[C@@H](Cc1c[nH]c2ccccc12)C(=O)N[C@H](CC(C)C)C(=O)N[C@@H](Cc1c[nH]c2ccccc12)C(=O)NCCO [compound 5284] (For-VGA[dT]A[dL]V[dL]W[dD](NHMe)W[dL]W[dL]W-NHCH2CH2OH) | Streptococcus pyogenes SSI-9 | -

Now consider the entry below.
For CC(C)C[C@@H](NC(=O)[C@H](Cc1c[nH]c2ccccc12)NC(=O)[C@H](NC(=O)[C@H](Cc1c[nH]c2ccccc12)NC(=O)[C@@H](CC(C)C)NC(=O)[C@H](Cc1c[nH]c2ccccc12)NC(=O)[C@H](NC(=O)[C@@H](NC(=O)[C@H](NC(=O)[C@H](C)NC(=O)[C@H](NC(=O)[C@H](C)NC(=O)CNC(=O)[C@@H](NC=O)C(C)C)C(C)C)C(C)C)C(C)C)C(C)C)[C@H](C)O)C(=O)N[C@@H](Cc1c[nH]c2ccccc12)C(=O)NCCO [compound 1849] (For-VGA[dV]A[dV]V[dV]W[dL]W[dT]W[dL]W-NHCH2CH2OH) the compound record lists antibacterial activity as +

---

Tested on: P388 mouse leukemia cells
condition notes: 92 h
Where a SMILES comes first, the peptide text is derived from it. [ ]: non-standard residue; d: D form. The star is where a group is joined. NHCH2CH2OH = OCCN*; For = O=C*
measured metric: cell viability/% (%)
Answer with a number only, understood to be in %.

Guide cases for cell viability/%, answers given:
molecule | cell viability/% [%]
CC(C)C[C@@H](NC(=O)[C@H](Cc1c[nH]c2ccccc12)NC(=O)[C@H](NC(=O)[C@H](Cc1c[nH]c2ccccc12)NC(=O)[C@@H](CC(C)C)NC(=O)[C@H](Cc1c[nH]c2ccccc12)NC(=O)[C@H](NC(=O)[C@@H](NC(=O)[C@H](NC(=O)[C@H](C)NC(=O)[C@H](NC(=O)[C@H](C)NC(=O)CNC(=O)[C@@H](NC=O)C(C)C)C(C)C)C(C)C)C(C)C)C(C)C)C(C)C)C(=O)N[C@@H](Cc1c[nH]c2ccccc12)C(=O)NCCO [compound 1844] (For-VGA[dV]A[dV]V[dV]W[dL]W[dV]W[dL]W-NHCH2CH2OH) | 47.9
CC(C)C[C@@H](NC(=O)[C@H](C)NC(=O)CNC(=O)[C@@H](NC=O)C(C)C)C(=O)N[C@@H](C)C(=O)N[C@@H](C(=O)N[C@H](C(=O)N[C@@H](C(=O)N[C@@H](Cc1c[nH]c2ccccc12)C(=O)N[C@@H](C(=O)N[C@@H](Cc1c[nH]c2ccccc12)C(=O)N[C@@H](C(=O)N[C@@H](Cc1c[nH]c2ccccc12)C(=O)N[C@H](CC(C)C)C(=O)N[C@@H](Cc1c[nH]c2ccccc12)C(=O)NCCO)C(C)C)C(C)C)[C@H](C)O)C(C)C)C(C)C [compound 4778] (For-VGA[dL]A[dV]V[dT]W[dV]W[dV]W[dL]W-NHCH2CH2OH) | 100.0
CC(C)C[C@@H](NC(=O)[C@H](C)NC(=O)CNC(=O)[C@@H](NC=O)C(C)C)C(=O)N[C@@H](C)C(=O)N[C@H](CC(C)C)C(=O)N[C@H](C(=O)N[C@H](CC(C)C)C(=O)N[C@@H](Cc1c[nH]c2ccccc12)C(=O)N[C@H](CC(C)C)C(=O)N[C@@H](Cc1c[nH]c2ccccc12)C(=O)N[C@H](CC(C)C)C(=O)N[C@@H](Cc1c[nH]c2ccccc12)C(=O)N[C@@H](C(=O)N[C@@H](Cc1c[nH]c2ccccc12)C(=O)NCCO)C(C)C)C(C)C [compound 8635] (For-VGA[dL]A[dL]V[dL]W[dL]W[dL]W[dV]W-NHCH2CH2OH) | 6.4

For CC(C)C[C@@H](NC(=O)[C@H](Cc1c[nH]c2ccccc12)NC(=O)[C@@H](CC(C)C)NC(=O)[C@H](Cc1c[nH]c2ccccc12)NC(=O)[C@@H](CC(C)C)NC(=O)[C@H](Cc1c[nH]c2ccccc12)NC(=O)[C@H](NC(=O)[C@@H](NC(=O)[C@H](NC(=O)[C@H](C)NC(=O)[C@H](NC(=O)[C@H](C)NC(=O)CNC(=O)[C@@H](NC=O)C(C)C)C(C)C)C(C)C)C(C)C)C(C)C)C(=O)N[C@@H](Cc1c[nH]c2ccccc12)C(=O)NCCO [compound 662] (For-VGA[dV]A[dV]V[dV]W[dL]W[dL]W[dL]W-NHCH2CH2OH) the molecule record lists cell viability/% as 1.5

For CNC(=O)C[C@@H](NC(=O)[C@@H](NC(=O)[C@@H](CC(C)C)NC(=O)[C@H](C)NC(=O)[C@@H](CC(C)C)NC(=O)[C@H](C)NC(=O)CNC(=O)[C@@H](NC=O)C(C)C)C(C)C)C(=O)N[C@@H](Cc1c[nH]c2ccccc12)C(=O)N[C@H](CC(C)C)C(=O)N[C@@H](Cc1c[nH]c2ccccc12)C(=O)N[C@H](CC(C)C)C(=O)N[C@@H](Cc1c[nH]c2ccccc12)C(=O)N[C@@H](C(=O)N[C@@H](Cc1c[nH]c2ccccc12)C(=O)NCCO)C(C)C [compound 5491] (For-VGA[dL]A[dL]V[dD](NHMe)W[dL]W[dL]W[dV]W-NHCH2CH2OH) the molecule record lists cell viability/% as 100.0

For CC(C)C[C@@H](NC(=O)[C@H](C)NC(=O)[C@H](NC(=O)[C@H](C)NC(=O)CNC(=O)[C@@H](NC=O)C(C)C)[C@H](C)O)C(=O)N[C@H](C(=O)N[C@H](CC(C)C)C(=O)N[C@@H](Cc1c[nH]c2ccccc12)C(=O)N[C@@H](C(=O)N[C@@H](Cc1c[nH]c2ccccc12)C(=O)N[C@H](CC(C)C)C(=O)N[C@@H](Cc1c[nH]c2ccccc12)C(=O)N[C@H](CC(C)C)C(=O)N[C@@H](Cc1c[nH]c2ccccc12)C(=O)NCCO)[C@H](C)O)C(C)C [compound 5215] (For-VGA[dT]A[dL]V[dL]W[dT]W[dL]W[dL]W-NHCH2CH2OH) the molecule record lists cell viability/% as 100.0

For CC(C)C[C@@H](NC(=O)[C@H](Cc1c[nH]c2ccccc12)NC(=O)[C@H](NC(=O)[C@H](Cc1c[nH]c2ccccc12)NC(=O)[C@@H](CC(C)C)NC(=O)[C@@H](NC(=O)[C@H](NC(=O)[C@H](C)NC(=O)[C@H](NC(=O)[C@H](C)NC(=O)CNC(=O)[C@@H](NC=O)C(C)C)C(C)C)C(C)C)C(C)C)C(C)C)C(=O)N[C@@H](Cc1c[nH]c2ccccc12)C(=O)N[C@@H](C(=O)N[C@@H](Cc1c[nH]c2ccccc12)C(=O)NCCO)C(C)C [compound 12947] (For-VGA[dV]A[dV]V[dL]W[dV]W[dL]W[dV]W-NHCH2CH2OH) the molecule record lists cell viability/% as 10.2

For CC(C)C[C@@H](NC(=O)[C@H](C)NC(=O)[C@H](NC(=O)[C@H](C)NC(=O)CNC(=O)[C@@H](NC=O)C(C)C)C(C)C)C(=O)N[C@H](C(=O)N[C@H](CC(C)C)C(=O)N[C@@H](Cc1c[nH]c2ccccc12)C(=O)N[C@@H](C(=O)N[C@@H](Cc1c[nH]c2ccccc12)C(=O)N[C@@H](C(=O)N[C@@H](Cc1c[nH]c2ccccc12)C(=O)N[C@@H](C(=O)N[C@@H](Cc1c[nH]c2ccccc12)C(=O)NCCO)C(C)C)C(C)C)C(C)C)C(C)C [compound 4477] (For-VGA[dV]A[dL]V[dL]W[dV]W[dV]W[dV]W-NHCH2CH2OH) the molecule record lists cell viability/% as 6.3
